Tested on: CCRIS mutagenicity, Ames/micronucleus/aberration tests
test method notes: CCRIS mutagenicity studies
assay conditions: Test System: AMES SALMONELLA TYPHIMURIUM; Strain/Indicator: TA98; Metabolic Activation: HAMSTER, LIVER, S-9, AROCLOR 1254 (10%); Method: PREINCUBATION
Activity calls are given as the source filed them. No rule for the calls is given here.
Return exactly one item of T = active, F = inactive

Ask | Give the logged outcome of this assay for the following molecule: CC(C)CCC[C@@H](C)[C@H]1CC[C@H]2[C@@H]3CC=C4C[C@@H](OC(=O)Cc5ccc(N(CCCl)CCCl)cc5)CC[C@]4(C)[C@H]3CC[C@]12C
Reply | F

====

System: CCRIS mutagenicity, Ames/micronucleus/aberration tests
test method notes: CCRIS mutagenicity studies
assay conditions: Test System: AMES SALMONELLA TYPHIMURIUM; Strain/Indicator: TA1535; Metabolic Activation: RAT, LIVER, S-9, AROCLOR 1254; Method: STANDARD PLATE
The source made the active and inactive calls. The rule behind the calls is not given here.
Return exactly one item of True (active), False (inactive)

C=C(C)C(=O)OCCCCOC(=O)C(=C)C = False
FC(F)(F)c1ccccc1Cl = False
O=C1c2cccc(O)c2C(=O)c2cccc(O)c21 = False

Ask | Give the logged outcome of this assay for the following molecule: CSCC[C@H](NC(=O)COc1ccc(Cl)cc1Cl)C(=O)O
Reply | False

Ask | Give the logged outcome of this assay for the following molecule: O=C(O)c1ccccc1
Reply | False

Ask | Give the logged outcome of this assay for the following molecule: CCCOC(=O)c1cc(O)c(O)c(O)c1
Reply | False

Ask | Give the logged outcome of this assay for the following molecule: O=Cc1cccc2cccnc12
Reply | False

Ask | Give the logged outcome of this assay for the following molecule: CN(Cc1ccccc1)N=O
Reply | True

====

Test system: CCRIS mutagenicity, Ames/micronucleus/aberration tests
test method notes: CCRIS mutagenicity studies
assay conditions: Test System: E.COLI; Strain/Indicator: WP2UVRA; Metabolic Activation: NONE; Method: PREINCUBATION
The source made the active and inactive calls. No rule for the calls is given here.
Return exactly one item of true (1) (active), false (0) (inactive)

Example entries begin here.
O=[N+]([O-])c1cccc2c([N+](=O)[O-])cccc12 = false (0)
CC(C)(C#N)N=NC(C)(C)C#N = false (0)
Cc1c(N=C=O)cccc1N=C=O = false (0)
CCC[N+](=O)[O-] = false (0)

Ask | Give the logged outcome of this assay for the following compound: O=C1CCCCCCCCCCCCCCO1
Reply | false (0)

====

Test system: CCRIS mutagenicity, Ames/micronucleus/aberration tests
test method notes: CCRIS mutagenicity studies
assay conditions: Test System: AMES SALMONELLA TYPHIMURIUM; Strain/Indicator: TA100; Metabolic Activation: RAT, LIVER, S-9; Method: STANDARD PLATE
Active and inactive are the calls of the source. How the calls were made is not given here.
Return exactly one item of Yes = active, No = inactive

Example entries begin here.
CC(C)CCOS(C)(=O)=O = Yes
CC[C@H](c1ccc(O)cc1)[C@@H](CC)c1ccc(O)cc1 = No
Cc1cccc(Nc2ccncc2S(=O)(=O)NC(=O)NC(C)C)c1 = No
O=P(OC(CCl)CCl)(OC(CCl)CCl)OC(CCl)CCl = No
O=NN(CC(=O)O)CC(=O)O = No
CC(N)=O = No
c1ccc(NNc2ccccc2)cc1 = No
CCCCC(CC)COC(=O)c1ccc(C(=O)OCC(CC)CCCC)cc1 (centres undefined) = No

Ask | Give the logged outcome of this assay for the following compound: COS(=O)(=O)c1ccccc1
Reply | Yes

Ask | Give the logged outcome of this assay for the following compound: CN(C)c1ccc(Cc2ccc(N(C)C)cc2)cc1
Reply | No

Ask | Give the logged outcome of this assay for the following compound: CC(C)(S)[C@@H](N)C(=O)O
Reply | Yes

Ask | Give the logged outcome of this assay for the following compound: COC(=O)C1=CCCN(N=O)C1
Reply | Yes

Ask | Give the logged outcome of this assay for the following compound: N[C@H](CS)C(=O)O
Reply | No

Ask | Give the logged outcome of this assay for the following compound: Nc1cc(-c2ccncc2)c[nH]c1=O
Reply | No

====

Test system: CCRIS mutagenicity, Ames/micronucleus/aberration tests
test method notes: CCRIS mutagenicity studies
assay conditions: Test System: AMES SALMONELLA TYPHIMURIUM; Strain/Indicator: TA100; Metabolic Activation: RAT, LIVER, S-9, PCB; Method: STANDARD PLATE
From the text: The CCRIS database contains chemical records with carcinogenicity, mutagenicity, tumor promotion, and tumor inhibition test results. It was developed by the National Cancer Institute (NCI). Data are derived from studies cited in primary journals, current awareness tools, NCI reports, and other sources. Test results have been reviewed by experts in carcinogenesis and mutagenesis. CCRIS provides historical information from the years 1985 - 2011. It is no longer updated. […]
The source made the active and inactive calls. The rule behind the calls is not given here.
assay metric: mutagenic call

Examples with answers:
c1ccc2c(c1)-c1cccc3cccc-2c13 = active; positive
O=C1C=Cc2ccc3c4c(ccc1c24)C(=O)C=C3 = inactive; negative
CC(=O)Nc1ccc(Cc2ccc(N)cc2)cc1 = inactive; negative
CC(Br)CBr (stereo unspecified) = inactive; negative
c1ccc2cc3ccccc3cc2c1 = inactive; negative
c1ccc2c(c1)c1cccc3ccc4cccc2c4c31 = active; positive
COC(=O)c1cc2c([nH]c3ccccc32)c(-c2ccc3c(n2)C(=O)C=CC3=O)n1 = active; positive
c1cc2cccc3c4cccc5cccc(c(c1)c23)c54 = active; positive

Count: 3. Required value per item: mutagenic call.
1. Oc1ccc(O)cc1
2. CC(=O)Nc1ccc(Oc2ccc(NC(C)=O)cc2)cc1
3. CC(C)(C)NCC(O)c1cc(Cl)c(N)c(C(F)(F)F)c1 (stereo unspecified)

Reply |
inactive; negative
inactive; negative
inactive; negative

====

Tested on: CCRIS mutagenicity, Ames/micronucleus/aberration tests
test method notes: CCRIS mutagenicity studies
assay conditions: Test System: UDS RAT HEPATOCYTES; Strain/Indicator: THY INCORP; Metabolic Activation: NONE; Method: AUTORADIOGRAPHY
Active and inactive are the calls of the source. No rule for the calls is given here.
assay metric: mutagenic call

CCN(CC)c1ccc(N=Nc2c(Cl)cc([N+](=O)[O-])cc2[N+](=O)[O-])cc1 = inactive; negative
CC(C)(Oc1ccc(C2CC2(Cl)Cl)cc1)C(=O)O (configuration not stated) = inactive; negative
C/C=C1/C[C@@H](C)[C@@](C)(O)C(=O)OC/C2=C/CN(C)CC[C@@H](OC1=O)C2=O = active; positive
C=C1C/C(=C/C)C(=O)O[C@@H]2CCN3CC=C(COC(=O)[C@]1(C)O)[C@H]23 = active; positive
COP(=O)(OC)OC=C(Cl)Cl = inactive; negative

Count: 2. Required value per item: mutagenic call.
1. Nc1nc(N)nc(N)n1
2. Cn1c(N)nc2c3cccnc3ccc21

Reply |
1. inactive; negative
2. inactive; negative

====

Tested on: CCRIS mutagenicity, Ames/micronucleus/aberration tests
test method notes: CCRIS mutagenicity studies
assay conditions: Test System: AMES SALMONELLA TYPHIMURIUM; Strain/Indicator: TA1538; Metabolic Activation: NONE; Method: STANDARD PLATE
Calls of active or inactive are those of the source. The rule behind the calls is not given here.
Return exactly one item of TRUE = active, FALSE = inactive

O=[N+]([O-])c1c(-c2ccc(Cl)cc2)nc2sccn12 = TRUE

Ask | Give the logged outcome of this assay for the following molecule: Nc1cc(CCO)c(N)c([N+](=O)[O-])c1
Reply | TRUE

Ask | Give the logged outcome of this assay for the following molecule: CC(C)(C)N(Cc1ccccc1)CC(O)c1ccc(O)c(CO)c1 (stereo unspecified)
Reply | FALSE

====

Test system: CCRIS mutagenicity, Ames/micronucleus/aberration tests
test method notes: CCRIS mutagenicity studies
assay conditions: Test System: AMES SALMONELLA TYPHIMURIUM; Strain/Indicator: TA100; Metabolic Activation: HAMSTER, LIVER, S-9, AROCLOR 1254; Method: STANDARD PLATE
Calls of active or inactive are those of the source. The rule behind the calls is not given here.
Return exactly one item of 1.0 = active, 0.0 = inactive

Example entries begin here.
[Cl][Fe]([Cl])[Cl] = 0.0
CC(C)N=C=NC(C)C = 0.0
O=C/C=C/c1ccc([N+](=O)[O-])cc1 = 1.0
CC(=O)Nc1ccc(N=Nc2cc(C)ccc2O)cc1 = 1.0
O=C(O)CCc1ccccc1 = 0.0

Ask | Give the logged outcome of this assay for the following compound: CC1=Nc2ccccc2C1(C)C
Reply | 0.0

Ask | Give the logged outcome of this assay for the following compound: CCCCCCCCC=O
Reply | 0.0

Ask | Give the logged outcome of this assay for the following compound: Nc1ccn([C@H]2CC[C@@H](CO)O2)c(=O)n1
Reply | 0.0
